# concentration at 2 h per record follows
assay: Food effect on administration of sepiapterin: plasma sepiapterin and BH4 concentrations, fasted vs fed; type: in vivo, human; settings: human, plasma, oral, 10 mg/kg, fed (high-fat meal); sepiapterin 10 mg/kg oral; 2 h; read-out: Concentration in Plasma, Mean
outcomeMeasure: concentration at 2 h (nM)

> print(dat)
                                   compound  endpointunit  reading
1  C[C@H](O)C(=O)C1=Nc2c(nc(N)[nH]c2=O)NC1 [sepiapterin, Sepiapterin]            nM     2.96
2  C[C@H](O)[C@H](O)[C@H]1CNc2nc(N)[nH]c(=O)c2N1 [BH4, Tetrahydrobiopterin]            nM      587

###

assay: Food effect on administration of sepiapterin: plasma sepiapterin and BH4 concentrations, fasted vs fed; assay type: in vivo, human; settings: human, plasma, oral, 10 mg/kg, fasted; sepiapterin 10 mg/kg oral; 12 h; read-out: Concentration in Plasma, Median
outcomeMeasure: concentration at 12 h (nM)

> print(dat)
                                   molecule         outcomemeasure  endpointunit  reading
1  C[C@H](O)[C@H](O)[C@H]1CNc2nc(N)[nH]c(=O)c2N1 [BH4, Tetrahydrobiopterin]  concentration at 12 h            nM     75.3
2  C[C@H](O)C(=O)C1=Nc2c(nc(N)[nH]c2=O)NC1 [sepiapterin, Sepiapterin]  concentration at 12 h            nM        0

###

test: Food effect on administration of sepiapterin: plasma sepiapterin and BH4 concentrations, fasted vs fed; format: in vivo, human; conditions: human, plasma, oral, 10 mg/kg, fed (high-fat meal); sepiapterin 10 mg/kg oral; 8 h; read-out: Concentration in Plasma, Median
outcomeMeasure: concentration at 8 h (nM)

> print(dat)
                                   compound  reading
1  C[C@H](O)C(=O)C1=Nc2c(nc(N)[nH]c2=O)NC1 [sepiapterin, Sepiapterin]        0
2  C[C@H](O)[C@H](O)[C@H]1CNc2nc(N)[nH]c(=O)c2N1 [BH4, Tetrahydrobiopterin]      485

###

# concentration at 4 h per record follows
test: Food effect on administration of sepiapterin: plasma sepiapterin and BH4 concentrations, fasted vs fed; format: in vivo, human; settings: human, plasma, oral, 10 mg/kg, fasted; sepiapterin 10 mg/kg oral; 4 h; read-out: Concentration in Plasma, Maximum
outcomeMeasure: concentration at 4 h

> print(dat)
                                   molecule        outcomemeasure  reading
1  C[C@H](O)[C@H](O)[C@H]1CNc2nc(N)[nH]c(=O)c2N1 [BH4, Tetrahydrobiopterin]  concentration at 4 h  1130 nM
2  C[C@H](O)C(=O)C1=Nc2c(nc(N)[nH]c2=O)NC1 [sepiapterin, Sepiapterin]  concentration at 4 h  3.93 nM

###

# concentration at 4 h per record follows
assay: Food effect on administration of sepiapterin: plasma sepiapterin and BH4 concentrations, fasted vs fed; format: in vivo, human; conditions: human, plasma, oral, 10 mg/kg, fed (high-fat meal); sepiapterin 10 mg/kg oral; 4 h; read-out: Concentration in Plasma, Mean
outcomeMeasure: concentration at 4 h

> print(dat)
                                   compound  reading
1  C[C@H](O)C(=O)C1=Nc2c(nc(N)[nH]c2=O)NC1 [sepiapterin, Sepiapterin]  2.96 nM
2  C[C@H](O)[C@H](O)[C@H]1CNc2nc(N)[nH]c(=O)c2N1 [BH4, Tetrahydrobiopterin]  1100 nM

###

experiment: Pharmacokinetic analysis of multiple doses of sepiapterin (once daily for 7 days, fed subjects); type: in vivo, human; settings: human, plasma, 20 mg/kg, Day 7; sepiapterin 20 mg/kg once daily; fed
outcomeMeasure: Tmax (h)

> print(dat)
                                   molecule  reading
1  C[C@H](O)[C@H](O)[C@H]1CNc2nc(N)[nH]c(=O)c2N1 [BH4, Tetrahydrobiopterin]        4

###

# concentration at 2 h per record follows
assay: Food effect on administration of sepiapterin: plasma sepiapterin and BH4 concentrations, fasted vs fed; assay type: in vivo, human; settings: human, plasma, oral, 10 mg/kg, fasted; sepiapterin 10 mg/kg oral; 2 h; read-out: Concentration in Plasma, Mean
outcomeMeasure: concentration at 2 h (nM)

> print(dat)
                                   compound        outcomemeasure  endpointunit  reading
1  C[C@H](O)C(=O)C1=Nc2c(nc(N)[nH]c2=O)NC1 [sepiapterin, Sepiapterin]  concentration at 2 h            nM     4.63
2  C[C@H](O)[C@H](O)[C@H]1CNc2nc(N)[nH]c(=O)c2N1 [BH4, Tetrahydrobiopterin]  concentration at 2 h            nM      413

###

# concentration at 0 h per record follows
Test: Food effect on administration of sepiapterin: plasma sepiapterin and BH4 concentrations, fasted vs fed
Assay type: in vivo, human
Settings: human, plasma, oral, 10 mg/kg, fasted; sepiapterin 10 mg/kg oral; 0 h (predose); read-out: Concentration in Plasma, Mean
Procedure: Method: Subjects received 2 oral doses of sepiapterin (10 mg/kg) separated by 1 week in a fasted and fed state. […] Sampling for PK analysis occurred predose on Days 1 and 8 (within 30 minutes before dosing) and 0.5 hr, 1 hr, 2 hr, 4 hr, 8 hr, 12 hr, and 24 hr after the doses on Days 1 and 8. The blood concentrations of sepiapterin and BH4 were analyzed by MNG Labs.
outcomeMeasure: concentration at 0 h (nM)

> print(dat)
                                   compound        outcomemeasure  endpointunit  reading
1  C[C@H](O)C(=O)C1=Nc2c(nc(N)[nH]c2=O)NC1 [sepiapterin, Sepiapterin]  concentration at 0 h            nM        0
2  C[C@H](O)[C@H](O)[C@H]1CNc2nc(N)[nH]c(=O)c2N1 [BH4, Tetrahydrobiopterin]  concentration at 0 h            nM     7.62

###

experiment: Food effect on administration of sepiapterin: plasma sepiapterin and BH4 concentrations, fasted vs fed; type: in vivo, human; conditions: human, plasma, oral, 10 mg/kg, fasted; sepiapterin 10 mg/kg oral; 4 h; read-out: Concentration in Plasma, Minimum
# concentration at 4 h per record follows
outcomeMeasure: concentration at 4 h (nM)

> print(dat)
                                   compound  reading
1  C[C@H](O)C(=O)C1=Nc2c(nc(N)[nH]c2=O)NC1 [sepiapterin, Sepiapterin]        0
2  C[C@H](O)[C@H](O)[C@H]1CNc2nc(N)[nH]c(=O)c2N1 [BH4, Tetrahydrobiopterin]      379

###

test: Food effect on administration of sepiapterin: plasma sepiapterin and BH4 concentrations, fasted vs fed; type: in vivo, human; settings: human, plasma, oral, 10 mg/kg, fed (high-fat meal); sepiapterin 10 mg/kg oral; 2 h; read-out: Concentration in Plasma, Minimum
outcomeMeasure: concentration at 2 h (µM)

> print(dat)
                                   compound  reading
1  C[C@H](O)[C@H](O)[C@H]1CNc2nc(N)[nH]c(=O)c2N1 [BH4, Tetrahydrobiopterin]    0.299
2  C[C@H](O)C(=O)C1=Nc2c(nc(N)[nH]c2=O)NC1 [sepiapterin, Sepiapterin]        0

###

assay: Food effect on administration of sepiapterin: plasma sepiapterin and BH4 concentrations, fasted vs fed; format: in vivo, human; details: human, plasma, oral, 10 mg/kg, fed (high-fat meal); sepiapterin 10 mg/kg oral; 24 h; read-out: Concentration in Plasma, Maximum
outcomeMeasure: concentration at 24 h (nM)

> print(dat)
                                   compound  reading
1  C[C@H](O)C(=O)C1=Nc2c(nc(N)[nH]c2=O)NC1 [sepiapterin, Sepiapterin]        0
2  C[C@H](O)[C@H](O)[C@H]1CNc2nc(N)[nH]c(=O)c2N1 [BH4, Tetrahydrobiopterin]     40.1

###

test: Pharmacokinetic analysis of multiple doses of sepiapterin (once daily for 7 days, fed subjects); format: in vivo, human; conditions: human, plasma, 60 mg/kg, Day 1; sepiapterin 60 mg/kg once daily; fed
outcomeMeasure: Tmax (h)

> print(dat)
                                   compound  endpointunit  reading
1  C[C@H](O)[C@H](O)[C@H]1CNc2nc(N)[nH]c(=O)c2N1 [BH4, Tetrahydrobiopterin]             h      4.6

###

# concentration at 0.5 h per record follows
assay: Food effect on administration of sepiapterin: plasma sepiapterin and BH4 concentrations, fasted vs fed; assay type: in vivo, human; conditions: human, plasma, oral, 10 mg/kg, fed (high-fat meal); sepiapterin 10 mg/kg oral; 0.5 h; read-out: Concentration in Plasma, Minimum
outcomeMeasure: concentration at 0.5 h (nM)

> print(dat)
                                   molecule          outcomemeasure  reading
1  C[C@H](O)[C@H](O)[C@H]1CNc2nc(N)[nH]c(=O)c2N1 [BH4, Tetrahydrobiopterin]  concentration at 0.5 h      8.9
2  C[C@H](O)C(=O)C1=Nc2c(nc(N)[nH]c2=O)NC1 [sepiapterin, Sepiapterin]  concentration at 0.5 h        0
